- Target Entity: SSTR4 (Homo sapiens (Human), UniProt P31391)
- Sequence (P31391 whole entry): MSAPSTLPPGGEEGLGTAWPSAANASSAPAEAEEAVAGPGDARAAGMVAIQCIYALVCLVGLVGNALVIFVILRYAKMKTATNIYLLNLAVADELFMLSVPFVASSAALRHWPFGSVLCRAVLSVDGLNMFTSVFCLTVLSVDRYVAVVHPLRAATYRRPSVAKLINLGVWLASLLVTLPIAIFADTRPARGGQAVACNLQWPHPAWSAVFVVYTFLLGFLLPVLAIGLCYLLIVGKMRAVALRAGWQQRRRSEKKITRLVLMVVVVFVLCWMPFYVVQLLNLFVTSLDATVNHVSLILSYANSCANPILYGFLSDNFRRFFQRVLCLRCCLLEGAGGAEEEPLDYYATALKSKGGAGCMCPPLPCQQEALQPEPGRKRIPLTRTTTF
- Test Protocol: SSTR4 I-125 somatostatin competition binding assay (membranes from CHO-K1 cells overexpressing SSTR4)
- Condition Description: competition with I-125 labeled somatostatin
Field: SSTR4 Binding pIC50. Provide a value for each of the molecules that follow.
I'd appreciate a reply containing only the number, no unit.

// sample Cc1cccnc1OCC(F)(F)C(=O)N[C@H]1CCNC[C@@H]1F , its SSTR4 Binding pIC50 was 6.7

Record CCOc1ccccc1OCC(C)(C)C(=O)NC1CCN(C)CC1 , field SSTR4 Binding pIC50: 6.7

// CN1CCC(NC(=O)C(F)(F)COc2ccccc2Cl)CC1 : SSTR4 Binding pIC50 value = 6.0

// recorded SSTR4 Binding pIC50 for Cc1ccccc1[C@@H]1CNCC[C@@H]1N(C)C(=O)C(C)(C)COc1ncccc1C(F)(F)F (relative stereo) : 6.4

Briefly, SSTR4 Binding pIC50 measured for O=C(N[C@H]1CCNC[C@@H]1F)C(F)(F)COc1ncccc1C(F)(F)F : 7.0

Measured SSTR4 Binding pIC50, C[C@@H]1CN(C)CC[C@H]1NC(=O)C(C)(C)COc1ncccc1C1CC1 (relative stereo) : 7.2

Lab note: measured SSTR4 Binding pIC50 of Cc1cnc(OCC(C)(C)C(=O)N[C@H]2CCN(C)C[C@@H]2C)c(C)c1 was 6.8

Query Cc1cccnc1OCC(C)(C)C(=O)N[C@@H]1CCN(C)C[C@H]1C (relative stereo) yields SSTR4 Binding pIC50 of 6.7

Value of SSTR4 Binding pIC50 reported for the molecule CN1CC[C@@H](NC(=O)C(C)(C)COc2ccccc2Br)C1 is 7.2

get_value(item= CN1CCC(NC(=O)C(C)(C)COc2ncccc2C(F)(F)F)C2(CC2)C1 (stereo not drawn) , readout=SSTR4 Binding pIC50) returns 6.9

Memo: CN1C[C@H](NC(=O)C(C)(C)COc2ncccc2OC(F)(F)F)C2(CC2)C1 , reported SSTR4 Binding pIC50: 7.3

What the record says about C[C@H]1C[C@@H](NC(=O)C(C)(C)COc2ncccc2OC(F)(F)F)CCN1C [Example 152] : SSTR4 Binding pIC50 is 6.6

response.value for Cc1cnc(OCC(C)(C)C(=O)NC2CCN(C)CC2)c(C)c1 (field: SSTR4 Binding pIC50) = 6.5

Form field SSTR4 Binding pIC50, entry CN1CCC(NC(=O)C(C)(C)COc2ccccc2Br)CC1 : 7.4

Just so you know, measured SSTR4 Binding pIC50 for C[C@@H]1C[C@H](NC(=O)C(C)(C)COc2ncccc2C(F)(F)F)CCN1C came out at 7.1

Measured SSTR4 Binding pIC50 of Cc1cnc(OCC(C)(C)C(=O)N[C@@H]2CCNC[C@H]2F)c(C)c1 : 6.8

get_value(item= C[C@@H]1CN(C)CC[C@H]1NC(=O)C(C)(C)COc1ncccc1C(F)(F)F (relative stereo) [Example 109] , readout=SSTR4 Binding pIC50) returns 7.0

Summary for this molecule, C[C@H]1CNCC[C@@H]1NC(=O)C(F)(F)COc1ncccc1C(F)(F)F : SSTR4 Binding pIC50 is 7.1

Reported SSTR4 Binding pIC50 of O=C(N[C@H]1CCNC[C@@H]1F)C(F)(F)COc1ncccc1OC(F)(F)F : 7.6

// SSTR4 Binding pIC50 value for CN1CC[C@H](NC(=O)C(C)(C)COc2ncccc2C2CC2)[C@@H](F)C1 : 7.2

SSTR4 Binding pIC50 measured on C[C@@H]1CN(C)CC[C@H]1NC(=O)C(C)(C)COc1ncccc1OC(F)(F)F (single isomer, unassigned) [Example 13] = 7.5

The molecule identified as COc1cccnc1OCC(C)(C)C(=O)NC1CCN(C)CC1 registered its SSTR4 Binding pIC50 at 6.0

Consider C[C@H]1CNCC[C@@H]1NC(=O)C(F)(F)COc1ncccc1C1CC1 . Its measured SSTR4 Binding pIC50 is 7.6

Field SSTR4 Binding pIC50 (entry Cc1nn(C)cc1[C@@H]1CN(C)C[C@H]1NC(=O)C(C)(C)COc1ncccc1C1CC1 (relative stereo) ) reads 7.0

Consider C[C@H]1CN(C)CC[C@@H]1NC(=O)C(C)(C)COc1ncccc1C(F)(F)F . Its measured SSTR4 Binding pIC50 is 7.2

According to the records, this molecule C[C@H]1CN(C)CC[C@@H]1NC(=O)C(C)(C)COc1ccccc1F displays SSTR4 Binding pIC50 of 7.0

So, Cc1c([C@@H]2CN(C)C[C@H]2NC(=O)C(C)(C)COc2ncccc2C2CC2)cnn1C (relative stereo) ? Its SSTR4 Binding pIC50 was 7.6

Briefly, SSTR4 Binding pIC50 measured for CC(C)(COc1ccccc1Cl)C(=O)NC1CCNCC1 : 7.6

SSTR4 Binding pIC50 measured on CN1C[C@@H](NC(=O)C(C)(C)COc2ncccc2C(F)(F)F)[C@H](c2cnn(C)c2)C1 (relative stereo) = 6.8

SSTR4 Binding pIC50 recorded for this molecule, C[C@H]1C[C@@H](NC(=O)C(C)(C)COc2ncccc2C(F)(F)F)CCN1C [Example 178] , is 6.5

Measured SSTR4 Binding pIC50 of Cc1ccccc1[C@@H]1CNCC[C@H]1N(C)C(=O)C(C)(C)COc1ncccc1C(F)(F)F (relative stereo) : 7.2

# SSTR4 Binding pIC50 of CN1CCC(NC(=O)C(C)(C)COc2ncccc2OC(F)(F)F)C2(CC2)C1 (stereo not drawn) = 7.3

Lookup result for Cc1cnc(OCC(C)(C)C(=O)N[C@@H]2CCN(C)[C@H](C)C2)c(C)c1 ; measured SSTR4 Binding pIC50: 6.2

Cited source for all entries: patent US11045457B2
